Read-out record for FKBP12 (Homo sapiens): Ki
Reply numerically in nM, unit not repeated.

compound	readout.units	Ki
COc1ccc(OCCOC(=O)C2CCCCN2S(=O)(=O)c2ccc3ncsc3c2)cc1OC (stereo not shown) [Compound 3c, reference compound]	nM	100
COc1ccc(OCCOC(=O)C2CCCCN2C(=O)C(=O)c2cc(OC)c(OC)c(OC)c2)cc1OC (stereo not shown) [Compound 3a, reference compound]	nM	300
COc1ccc(OCCN2CC3CCCC(C2=O)N3S(=O)(=O)c2ccc3[nH]c(=O)sc3c2)cc1OC (stereo not shown)	nM	70

In plain terms, COc1ccc(OCCN2CC3CCCC(C2=O)N3C(=O)C(=O)c2cc(OC)c(OC)c(OC)c2)cc1OC (stereo not shown) [Compound 4a, reference compound] has a documented Ki of 200
